# Test system: TK-10 renal
# assay_method_text: NCI-60 one-dose screen, 48 h (100 = growth as untreated, 0 = no growth, -100 = all killed)
# measurement_conditions: 10 µM unless noted
Compounds without any hit were thinned out: in the full panel of roughly 83,000, 20% have a hit. Activity calls are given as the source filed them. Rule for the calls: active = growth percent below 10; inactive = the rest.
Would you mind telling me the reported growth of each entry?

Query: growth; subject: `CC(=O)C(=Cc1ccc(C=C(C(C)=O)C(C)=O)cc1)C(C)=O` 5.12% (active)

Likewise for `NC(=S)N/N=C/c1ccc(Cl)s1` ? 105% (inactive)

Consider next the compound `Cc1ccc(N=C=C(c2ccccc2)c2ccccc2)cc1` in the same way. 112% (inactive)

Same lookup for CN(C)c1ccc(C(=C2C=CC(=[N+](C)C)C=C2)c2ccc(N(C)C)cc2)cc1 (tested in a mixture with another compound) , please. -79.2% (active)

How about CCC1OC(OC)C=CC1=O (stereo not given) ? 110% (inactive)

Note, next up: `Cn1c2ccccc2c2nnc(N/N=C/c3ccccn3)nc21` -18.9% (active)

Now give it for `Cc1c2ccccc2c(C)c2c1ccc1ccccc12` too. 111% (inactive)

Moving on to the next compound: `O=C(/C=C/C=C/c1ccccc1)c1ccco1` 128% (inactive)

Also `CCOC(=O)/C(=C\c1ccc(-c2ccccc2)cc1)C(C)=O` , if possible. 86.1% (inactive)

Lookup `CCCCCCCCCCCCCCCCN(CC)CC` -89.4% (active)

Then `CC(=O)ON=C1C=CC(=C(C#N)c2ccccc2)C=C1` ? 21.1% (inactive)

Entry COC(=O)[C@@]12OC[C@]34[C@H]([C@@H](O)[C@@H]1O)[C@@]1(C)[C@H](O)C(=O)C=C(C)[C@@H]1C[C@H]3OC(=O)C(OC(C)=O)[C@@H]24 (stereo not given in full) please -32.7% (active)

Lookup `Cc1ccc2nc(C[n+]3ccc4ccccc4c3)ccc2c1` 95% (inactive)

And what about the compound `NC(=O)/C=C/C(=O)c1c(Cl)cccc1Cl` ? -83.7% (active)

Repeat for the following compound: C1=C(c2ccccc2)C(c2ccc(OCCN3CCCCC3)cc2)Oc2ccccc21 (stereo not given) 74.9% (inactive)

Same again, this time with `O=C(Nc1cccc(Br)c1)Oc1ccc(Cl)c2cccnc12` 170% [100 µM] (inactive)

Query `CCCCCC(CCCCC)C(=O)O` next 101% (inactive)

// same read-out, input: `N#CSCc1ccc(CSC#N)c(Cl)c1` 94.3% (inactive)

Another compound: `N#Cc1ccc([N+](=O)[O-])o1` 108% (inactive)

Further, for `CCN(CC)CC(C)(C)C(=O)/C=C/c1ccc(Cl)c(Cl)c1` ? -34.7% (active)

And then `O=C(Nc1ccc(F)cc1)ON=C1CCCCC1` , what is it? 101% [100 µM] (inactive)

And then `CCN1/C(=C\c2cc[n+](CC)c3ccccc23)C=Cc2ccccc21` , what is it? 22.3% (inactive)

Ok, now `CN=C(N)N/N=C(\C)c1ccc2c(c1)Cc1cc(/C(C)=N/NC(N)=NC)ccc1-2` -4.01% (active)

Next: `NC(=S)N/N=C\c1nccc2c(C(F)(F)C(F)(F)C(F)(F)F)cccc12` 11.9% (inactive)

Would you mind doing `CC(=Nc1ccc(N(C)C)cc1)c1ccccc1` as well? 72.6% (inactive)

Another: `Cc1ccnc2c1ccc1c(C)ccnc12` 25.7% (inactive)

Another: `CN(C)c1ccc(/C=N/N=C(\C#N)[S][Sn]([Cl])([c]2ccccc2)[c]2ccccc2)cc1` -24.1% (active)

Proceed to `CN(C)CCOc1ccc2c(c1)C(=O)/C(=C\c1ncc([N+](=O)[O-])n1C)C2` -9.94% (active)

Next entry: `C[n+]1c(/C=C/c2ccc([N+](=O)[O-])cc2)ccc2ccccc21` 112% (inactive)

# repeat for `O=C1N[C@H]2[C@H](CS[C@H]2CCCCC(=O)N(CCP(c2ccccc2)c2ccccc2)CCP(c2ccccc2)c2ccccc2)N1` 97.4% (inactive)

---

# Test system: SF-268 CNS
# assay_method_text: NCI-60 one-dose screen, 48 h (100 = growth as untreated, 0 = no growth, -100 = all killed)
# measurement_conditions: 10 µM unless noted
The panel holds about 83,000 compounds, 20% with a hit somewhere; the sample as a whole holds those more often.
Answer each item with its documented growth.
State just the number; it will be interpreted in %.

Quick one: growth of `O=Nc1ccccc1N=O` ? 89.4

Also CN1c2ccccc2C(C)(C)C12C=Cc1cc(O)ccc1O2 (stereo not drawn) , if possible. 15.4

Try CC1OC2CC(=O)OC2C2=C1C(=O)c1c(O)cccc1C2=O (stereo not drawn) next. -92.9

Try `CN=C(N)N/N=C(\C)c1ccc2c(c1)Cc1cc(/C(C)=N/NC(N)=NC)ccc1-2` next. -61

Further, for `CCN1/C(=C\c2cc[n+](CC)c3ccccc23)C=Cc2ccccc21` ? 26.3

Consider next the molecule `NC(=O)/C=C/C(=O)c1c(Cl)cccc1Cl` in the same way. -57.3

Now consider CCCCCCC(C)c1ccccc1O (stereo not drawn) (tested in a mixture with another compound) and answer again. 112

Would you kindly repeat that for `CNC(=O)N/N=C/c1ccc([N+](=O)[O-])o1` ? 94.2

Repeat with `CCC(=O)Sc1ccccc1C(=O)Nc1ccc(Cl)cc1` 56.4

Similarly, `O=C1c2ccccc2C(=O)c2sc(Nc3cccc(Cl)c3)nc21` ? -7.47

Field entry: `CC(C)c1ccc2nc3ccc(C(=O)NCCN4CCN(c5ccccc5)CC4)cn3c(=O)c2c1` 72.9

Check N#CC1C(=O)SC2c3ccccc3C(=O)c3ccccc3C12 (stereo not drawn) too. 101

Do the same for CC1OC(OC2C(OC3CCC4(C)C(CCC5(C)C4CC=C4C6CC(C)(C)CCC6(CO)C(O)CC45C)C3(C)C)OC(C(=O)O)C(OC3OC(COC4OC(CO)C(O)C(O)C4O)C(O)C(O)C3O)C2O)C(O)C(O)C1O (stereo not drawn) please 1.99

Also `CCCCCCCCCCCCCCNCc1ccccc1` ? 94.7

Continue with `Oc1ccc(/C=N/NC(=S)Nc2ccccc2)nc1` 18.7

Further, for `CC1(C)CC([P+](c2ccccc2)(c2ccccc2)c2ccccc2)=NN1` ? 41.1

What do we get for `C=CCOc1ccc(N=NC(C#N)C#N)cc1` ? 102

What do we get for `O=C(/C=C/C=C/c1ccccc1)c1ccco1` ? 91.5
